Measured values drawn from PubChem BioAssay for this set.

target: Alpha-2C adrenergic receptor (Homo sapiens); assay: compounds altering alpha2C-coupled GIRK flux – cell-based, HEK293 alpha2C/GIRK1/2, thallium flux, primary screen (AID 624); details: thallium flux BTC fluorescence, at 10 µM, actives lie on both sides;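 note: slope of fluorescence ratio to pre-addition baseline per second over 15 to 24 s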
VALUE_TYPE: slope

MOLECULE | ENDPOINT_RESULT
N#CC1=C(N)Oc2c(ccc3cccnc23)C1c1cccnc1 (centres undefined) | 0.0058
CC1(C)Cc2cccc(OCC(=O)O)c2O1 | 0.00676
O=C(c1ccccc1)N1CCN(Cc2ccccc2Br)CC1 | 0.00425
COc1cccc(OC)c1OCCCSc1nc(C)cc(=O)[nH]1 | 0.00519
CCN(C(=O)CCc1nc(-c2ccccc2F)no1)c1cc(OC)ccc1OC | 0.00445
CC(=O)Nc1ccc(S(=O)(=O)CCC#N)cc1 | 0.00638
Cc1ccc(N2CCN(C(=O)c3ccccc3)CC2)c(C)c1 | 0.00418
CCN(CCO)C(=O)CC(c1ccccc1)c1cc(Br)ccc1O (centres undefined) | 0.00761
CCOC(=O)Nc1ccc(NS(=O)(=O)c2ccc(C)cc2)cc1 | 0.00595

----------
experiment: reduction of polyQ htt aggregates in cells – imaging, exon1htt(103Q)mCFP cells, high-content imaging, primary screen (AID 483); settings: exon1htt(103Q)mCFP cell line, aggregate imaging, at 2 µM; measured here: cell count, toxicity;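 note: compound exposure lasted 3 days before fixation; percent of the per-plate median nuclei count of sample wells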
Quick list: nuclei count per entry.

COMPOUND | UNIT_ANNOTATION | nuclei count
O=C(CN1CCCN(S(=O)(=O)c2ccc(Br)cc2)CC1)Nc1ccc2c(c1)OCO2 | % | 107
O=C(CSc1ncc(-c2ccc(F)cc2)[nH]1)N1CCCCC1 | % | 78.3
Cn1c(C(=O)NCCCN2CCCCCC2)cc2c(=O)n(C)c3ccccc3c21 | % | 76.6
Cc1cccnc1NC(=O)CCCN1C(=O)c2ccccc2C1=O | % | 102
Cc1cc(-c2ccccc2)c(C#N)c(N)n1 | % | 94.7
COC(=O)CNC(=O)COC(=O)c1cc(Cl)cc(Cl)c1N | % | 112
Cc1cccc(N2C(=O)CC(Sc3nc(C)c4c(n3)CCCC4)C2=O)c1 (configuration not stated) | % | 105
CCOC(=O)C1CCN(Cc2ccc(OC)c(C)c2OC)CC1 | % | 107
CCCCN(CC)CCCNC(=O)CS(=O)(=O)Cc1nc(-c2cccc(OC)c2)oc1C | % | 100
COCCn1nnnc1C(c1ccccc1OC)N1CCc2ccccc2C1 (configuration not stated) | % | 105
CC(=O)c1ccc(NC2OC(C)C(O)C(O)C2O)cc1 (configuration not stated) | % | 93.8
COc1cccc(-c2noc(-c3cccs3)n2)c1 | % | 110
COc1ccc2c(c1)C(C)=CC(C)(C)N2C(=O)C(C)N1C(=O)c2ccccc2C1=O (configuration not stated) | % | 108
O=C(Nc1nc(-c2ccccn2)cs1)C1CC1 | % | 94.5
c1ccc2c(c1)CC(N1CCCCC1)c1ccccc1N2 (configuration not stated) | % | 107
O=S(=O)(c1ccc(F)c(Cl)c1)N1CCCC1 | % | 98.5
CN1CCN(C(=O)c2ccc(CS(=O)(=O)c3c(Cl)cccc3Cl)o2)CC1 | % | 96.9
Cc1cc(NS(=O)(=O)c2ccc(Nc3nc(-c4sc(N)nc4C)cs3)cc2)no1 | % | 117
CCN(C(=O)COC(=O)c1cc(C)n(-c2ccc(F)cc2)c1C)C1CCS(=O)(=O)C1 (configuration not stated) | % | 114
COC(=O)c1cn(NC(=O)C2CCCO2)c(=O)c2ccccc12 (configuration not stated) | % | 103
Cn1c(SCC(=O)Nc2ccc3c(c2)oc2ccccc23)nnc1-c1ccccc1 | % | 96.1
CCC(=O)N1Cc2ccccc2-c2ccccc2C1=O | % | 98.3
O=C1C(Cl)=C(NCC2CCCO2)C(=O)N1CCc1ccccc1 (configuration not stated) | % | 102
O=C(c1ccc2c(c1)OCCO2)C1CCN(C(=O)c2ccc(F)cc2)CC1 | % | 110
COc1cccc(C(=O)Nc2ccc(C)cc2)c1 | % | 95.1
Cc1[nH]nc2c1C(=O)CCC2 | % | 96.1
COc1cc(C2c3c(n[nH]c3C)C(=O)N2c2ccc(Br)cc2)ccc1O (configuration not stated) | % | 100
CCOC(=O)CNC(=O)CSc1nnnn1-c1cc(C)ccc1C | % | 89.4
COc1cc2c(cc1OC)C(C)N(C(=O)Cn1ncc3c1-c1ccccc1OC3)CC2 (configuration not stated) | % | 114
O=C(NCCO)c1cc2ccccc2cc1O | % | 85.8
CCOC(=O)CN(C(=O)c1ccccc1)c1ccccc1C | % | 108
Cc1ccc(/C=c2\sc3nc(-c4ccccc4Br)nn3c2=O)o1 | % | 92.3
COc1cccc(-c2nnn(CC(=O)O)n2)c1 | % | 90.3
COC(=O)Cc1cc(=O)[nH]c(Nc2nc3ccccc3o2)n1 | % | 108
CCCC(CCC)C(=O)NCCN1CCOCC1 | % | 97
COc1ccc(Cl)c(NCCC(=O)O)c1 | % | 110
CCc1nn(CC(=O)N2CCN(Cc3ccc4c(c3)OCO4)CC2)c(=O)c2cc3occc3n12 | % | 90.2
COc1cc2c(cc1OC)CN(C(=O)COc1ccc(C)c(C)c1)CC2 | % | 106
O=S(=O)(NCc1ccc(Cl)cc1)c1cnc[nH]1 | % | 96.7
COc1ccc2cc(CN(CCO)C(=O)c3ccccc3F)c(=O)[nH]c2c1 | % | 108
COc1ccc(S(=O)(=O)N2CCCC(C(=O)N3CCCCCC3)C2)cc1 (configuration not stated) | % | 106
O=c1c2cc(N3CCOCC3)ccc2[nH]c(=S)n1CCCN1CCCCC1 | % | 121

----------
test: endothelial E-selectin expression blockers – imaging, HUVEC, immunofluorescence, MLSMR starter and 10KST1 sets, primary screen (AID 487); conditions: HUVEC TNFalpha-induced E-selectin immunofluorescence imaging, at 2 µM; measured here: cell number, toxicity;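 note: 100% = median nuclei count of all wells on the same plate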
Quick list: nuclei count per entry.

COMPOUND | nuclei count (%)
Cc1ccc(C)c(NS(=O)(=O)c2ccc(NC(=O)c3ccco3)cc2)c1 | 109
CCOC(=O)N1CCN(S(=O)(=O)c2ccc(F)c(C(=O)Nc3cc(C)cc(C)c3)c2)CC1 | 111
COc1ccc(CN(C(=O)c2cccs2)c2nccs2)cc1OC | 111
CCc1nnc(NC(=O)CSc2nnc(-c3ccc(OC)cc3)n2C)s1 | 112
O=C(CC(=O)c1cc(Cl)ccc1O)c1ccccc1 | 126
O=C(Nc1ccccc1C(=O)N1CCN(c2ccccc2)CC1)c1ccco1 | 111
CCOC(=O)N(C)c1ccc(C(O)(C(F)(F)F)C(F)(F)F)cc1 | 109
C/C=C/CSc1nc2c(c(=O)[nH]c(=O)n2C)n1Cc1ccc(C)cc1 | 112
COc1ccc(Oc2c(C)oc3cc(OC(=O)N4CCOCC4)ccc3c2=O)cc1 | 112
CCOC(=O)C1CCCN(c2c(N3CCN(c4ccccn4)CC3)c(=O)c2=O)C1 (stereo not drawn) | 132
COc1ccc(C2(C(=O)N3CCCC3)CCOCC2)cc1OC | 111
CCOC(=O)C(NCc1ccccc1OC)(NC(C)=O)C(F)(F)F (stereo not drawn) | 125
CCOC(=O)C(CC)Sc1nc2c(c(=O)[nH]c(=O)n2C)n1C/C=C(/C)Cl (stereo not drawn) | 106
O=C(NC1CCCC1)C(c1cccs1)N(C(=O)c1ccno1)c1ccccc1 (stereo not drawn) | 94.7
c1ccc2c(c1)CNc1ccccc1C2 | 86.7
Cc1ccc(N(C)C(=O)N2CCN(c3ccccn3)CC2)cc1 | 97.6
CN(C)CCCN1C(=O)c2oc3ccccc3c(=O)c2C1c1cccs1 (stereo not drawn) | 132
CC1=C(C(=O)NCc2ccco2)C2(CCC(C)CC2)OC1=O (stereo not drawn) | 106
COc1ccc(CCNC(=O)c2ccc(N3CCCC3=O)cc2)cc1OC | 89.1
c1ccc(-n2ncc3c(N4CCCCC4)ncnc32)cc1 | 118
Cc1cc(C(F)(F)F)nc(NCc2cccnc2)n1 | 120
COC(=O)c1ccccc1NS(=O)(=O)c1ccc(F)cc1 | 114
C=CCN1C(=O)C2(c3ccccc31)C1CCCC=C1C(C#N)=C(N)C2(C#N)C#N (stereo not drawn) | 101
Fc1ccc(-c2csc3nnc(SCc4cccnc4)n23)cc1 | 116
CC(C)OC(=O)c1ccc(OC(=O)c2cccnc2)cc1 | 104
COc1ccc(S(=O)(=O)N2CCN(Cc3ccc(Cl)cc3)CC2)cc1 | 148
CC(C)CCNC(=O)C1CCN(C(=O)N(C)C)CC1 | 104
O=C(Nc1nccs1)c1ccc(COc2ccccc2Br)o1 | 118
CC1=C(C(=O)Nc2cccnc2)C(c2ccc(C(C)C)cc2)n2ncnc2N1 (stereo not drawn) | 120
Cc1cccc(-c2cc3nc4c(c(N5CCC6(CC5)OCCO6)n3n2)CCCC4)c1 | 156
CCOCCCn1c(=S)[nH]c2cc3c(cc2c1=O)OCO3 | 103
CCOC(=O)c1ccc(NC(=O)CSC2=NC(=O)C(CC)C(=O)N2)cc1 (stereo not drawn) | 102
O=C(c1ccc2nc(N3CCCCC3)sc2c1)N1CCN(c2ccccn2)CC1 | 118
CCOC(=O)CNC(=O)CSc1ncnc2c1cnn2Cc1ccccc1 | 134
CSc1nc2ccc(Nc3nc(N4CCOCC4)nc(N4CCOCC4)n3)cc2s1 | 110
Cc1ccc(-c2cc(C(F)(F)F)n3nc(C(=O)N4CCCC4)cc3n2)cc1 | 127
CC(=O)Nc1ccc(OC(=O)c2cccs2)cc1 | 94.2
CCOc1cc(C2C(C#N)=C(N)Oc3n[nH]c(CC)c32)ccc1OCCN1CCOCC1 (stereo not drawn) | 101
